Test system: OVCAR-5
Assay: NCI tumour cell line growth inhibition, 48 h
Calls of active or inactive are those of the source. Cut-off read from the data, not from the text of the source: active = GI50 up to about 1.1 µM and inactive = higher.
metricName: GI50

INSERT INTO results (compound, valueobserved) VALUES
  ('COc1ccc(OC)c(CNc2ccc(O)c(C(=O)NCCc3ccc(F)cc3)c2)c1', '22.4 µM (inactive)'),
  ('Cc1cn2c(=O)c3ncn(C4OC(CO)C(O)C4O)c3n(C)c2n1 (stereo not given)', '> 100 µM (inactive)'),
  ('O=C(c1cccnc1)N1N=C(c2ccc(Cl)cc2)CC1(O)c1cc(F)c(Cl)cc1Cl (stereo not given)', '33.7 µM (inactive)'),
  ('COc1cc([C@H]2c3cc4c(cc3[C@H](NCc3ccc(F)cc3)C3COC(=O)[C@H]32)OCO4)cc(OC)c1O (stereo not given in full)', '8.91 µM (inactive)'),
  ('CSCCC(N)C(=O)NCCNc1ccc(NCCNC(=O)C(N)CCSC)c2c1C(=O)c1ccccc1C2=O (stereo not given)', '1.99 µM (inactive)');

These data points were gathered from ChEMBL document CHEMBL1201862.
